Overview of recorded logP for various compounds
Readout: logP

{"Compound": "O=C(c1ccccc1)c1ccncc1", "Readout": "logP", "Numeric Result": 1.98}
{"Compound": "CC(=O)Nc1ccccc1Cl", "Readout": "logP", "Numeric Result": 1.28}
{"Compound": "CC(=O)OCC(=O)[C@@]1(O)CC[C@H]2[C@@H]3CCC4=CC(=O)C=C[C@]4(C)[C@H]3[C@@H](O)C[C@@]21C", "Readout": "logP", "Numeric Result": 2.4}
{"Compound": "CC(=O)NC(CO)C(O)c1ccc([N+](=O)[O-])cc1 (stereo not given)", "Readout": "logP", "Numeric Result": -0.03}
{"Compound": "COCCOC(=O)c1ccccc1", "Readout": "logP", "Numeric Result": 1.78}
{"Compound": "CC1=NCCN1CCO", "Readout": "logP", "Numeric Result": 0.04}
{"Compound": "CCCCCc1ccccc1", "Readout": "logP", "Numeric Result": 4.9}
{"Compound": "NNC(=O)c1cccc(I)c1", "Readout": "logP", "Numeric Result": 1.53}
{"Compound": "COC(=O)Nc1nc2ccccc2[nH]1", "Readout": "logP", "Numeric Result": 1.52}
{"Compound": "CCCCC(=O)OCC(=O)[C@@]1(OC(=O)CCCC)[C@@H](C)C[C@H]2[C@@H]3CCC4=CC(=O)C=C[C@]4(C)[C@@]3(F)[C@@H](O)C[C@@]21C", "Readout": "logP", "Numeric Result": 5.26}
{"Compound": "C=C(C)C(=O)O", "Readout": "logP", "Numeric Result": 0.93}
{"Compound": "CN(C)CCCc1ccccc1", "Readout": "logP", "Numeric Result": 2.73}
{"Compound": "Nc1ncnc2nn[nH]c12", "Readout": "logP", "Numeric Result": -0.96}
{"Compound": "Nc1cc([N+](=O)[O-])ccc1C(=O)O", "Readout": "logP", "Numeric Result": 1.91}
{"Compound": "CNC(=O)Oc1cc(C)ccc1C(C)(C)C", "Readout": "logP", "Numeric Result": 3.14}
{"Compound": "Cc1c(CC(=O)O)sc2ccc(Cl)cc12", "Readout": "logP", "Numeric Result": 3.92}
{"Compound": "CCCCCCCC(=O)O", "Readout": "logP", "Numeric Result": 3.05}
{"Compound": "CC(=O)Oc1ccccc1", "Readout": "logP", "Numeric Result": 1.49}
{"Compound": "O=[N+]([O-])c1ncc[nH]1", "Readout": "logP", "Numeric Result": 0.15}
{"Compound": "CC(=O)c1ccc(C#N)cc1", "Readout": "logP", "Numeric Result": 1.22}
{"Compound": "CN(C)CCOC(=O)c1ccc(C#N)cc1", "Readout": "logP", "Numeric Result": 1.43}
{"Compound": "CCC(=O)C1(c2cccc(OC(=O)CC(C)(C)C)c2)CCN(C)CC1", "Readout": "logP", "Numeric Result": 3.17}
{"Compound": "ClCCl", "Readout": "logP", "Numeric Result": 1.25}
{"Compound": "CON(C)C(=O)Nc1ccccc1", "Readout": "logP", "Numeric Result": 1.29}
{"Compound": "O=[N+]([O-])c1ncn(CC(O)CCl)n1 (stereo not given)", "Readout": "logP", "Numeric Result": 0.05}
{"Compound": "O=C(O)c1cc2ccccc2o1", "Readout": "logP", "Numeric Result": 2.41}
{"Compound": "CN(C)C(N(C)C)=S(I)c1c(Cl)cccc1Cl (stereo not given)", "Readout": "logP", "Numeric Result": 0}
{"Compound": "N#Cc1cccc(C(=O)O)c1", "Readout": "logP", "Numeric Result": 1.48}
{"Compound": "CCc1cc([N+](=O)[O-])cc([N+](=O)[O-])c1O", "Readout": "logP", "Numeric Result": 2.67}
{"Compound": "C=CCCCCC", "Readout": "logP", "Numeric Result": 3.99}
